Values were extracted from paper PMC9090415.

- experimental target: P. falciparum apicoplast DNA polymerase (Pf-apPOL) (Plasmodium falciparum)
- Sequence (Q8ILY1 entry or part of it): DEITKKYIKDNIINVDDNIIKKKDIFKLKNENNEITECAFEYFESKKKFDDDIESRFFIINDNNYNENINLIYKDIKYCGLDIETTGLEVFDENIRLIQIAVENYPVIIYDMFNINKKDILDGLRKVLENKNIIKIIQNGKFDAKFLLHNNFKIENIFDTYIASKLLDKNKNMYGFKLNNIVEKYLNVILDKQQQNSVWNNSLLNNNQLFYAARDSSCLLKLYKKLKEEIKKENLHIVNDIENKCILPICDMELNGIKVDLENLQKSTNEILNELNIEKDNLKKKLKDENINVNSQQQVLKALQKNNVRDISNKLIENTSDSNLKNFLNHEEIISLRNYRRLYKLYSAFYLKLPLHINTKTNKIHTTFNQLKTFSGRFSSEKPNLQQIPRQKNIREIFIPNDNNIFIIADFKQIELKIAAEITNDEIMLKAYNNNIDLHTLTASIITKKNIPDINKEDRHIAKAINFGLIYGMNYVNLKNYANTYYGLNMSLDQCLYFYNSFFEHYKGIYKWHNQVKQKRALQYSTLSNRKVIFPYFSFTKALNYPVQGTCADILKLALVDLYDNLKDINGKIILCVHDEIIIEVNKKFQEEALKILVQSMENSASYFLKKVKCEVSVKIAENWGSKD
- test details: Fluorescence-based high-throughput DNA polymerase assay (molecular beacon), primary screen and dose-response
- Format: biochemical
- settings: DRC-1; 90'; concentration 40
measure name: % inhibition Apol 90'
Give the number first and the unit second.

The examples below pair each entry with its known result.
molecule	experimental target	% inhibition Apol 90'
Cc1ccc(-n2nnc(C(=O)O)c2-c2ccccn2)c(F)c1 [Molecule 54, Cc1ccc(c(c1)F)n1nnc(c1c1ccccn1)C(=O)O]	P. falciparum apicoplast DNA polymerase (Pf-apPOL) (Plasmodium falciparum)	61.51%
COc1ccc2c(c1)CCc1c-2nc2ccc(Br)cc2c1C(=O)O [KU0059417]	P. falciparum apicoplast DNA polymerase (Pf-apPOL) (Plasmodium falciparum)	54.5207%
CCSc1nnc(NC(=O)Cc2csc(NC(=O)c3cnccn3)n2)s1 [Molecule 79]	P. falciparum apicoplast DNA polymerase (Pf-apPOL) (Plasmodium falciparum)	23.3518%
O=C(NNC(=O)c1ccc(Cl)cc1)C(=O)NNC(=O)c1ccc(Cl)cc1 [Molecule 25]	P. falciparum apicoplast DNA polymerase (Pf-apPOL) (Plasmodium falciparum)	57.5316%
O=C(c1c[nH]c2ncccc12)N1CCCCCC1 [Molecule 51, O=C(c1c[nH]c2c1cccn2)N1CCCCCC1]	P. falciparum apicoplast DNA polymerase (Pf-apPOL) (Plasmodium falciparum)	60.4317%
COc1ccc(-c2c(C(F)(F)F)nn3c(=O)cc(-c4cccc([N+](=O)[O-])c4)[nH]c23)cc1 [Molecule 16]	P. falciparum apicoplast DNA polymerase (Pf-apPOL) (Plasmodium falciparum)	97.371%
CSC(C)C(=O)C=CN(C)C (stereo not drawn) [Molecule 71, CSC(C(=O)C=CN(C)C)C]	P. falciparum apicoplast DNA polymerase (Pf-apPOL) (Plasmodium falciparum)	40.8686%
O=C(NC(C(Cl)Cl)S(=O)(=O)c1ccccc1)c1ccccc1 (stereo not drawn) [KU0045239]	P. falciparum apicoplast DNA polymerase (Pf-apPOL) (Plasmodium falciparum)	71.3995%

// switching to the query molecule
Exam item: Suppose we examine the molecule O=C(Nc1cccc(Cl)c1)Nc1nnc(-c2ccncc2)s1 [KU0022348] ; what % inhibition Apol 90' value has been reported?
Marked response: 84.2961%

====

Overview of recorded % inhibition Apo pol 5' for various compounds
- experimental target: P. falciparum apicoplast DNA polymerase (Pf-apPOL) (Plasmodium falciparum)
- test details: Fluorescence-based high-throughput DNA polymerase assay (molecular beacon), primary screen and dose-response
- Format: biochemical
- settings: DRC-2; concentration 2.5; 5'
The answer is to be given in %; state only the numeric part.

Look over these answered cases.
structure string	result unit	% inhibition Apo pol 5'
Cc1ccc(C2=N/C(=C\c3ccc(I)o3)C(=O)O2)cc1[N+](=O)[O-]	%	19
CCCN1COc2ccc3c(=O)c(-c4ccccc4)coc3c2C1	%	7.48
Nc1ncnc(NC2CCCCC2)c1[N+](=O)[O-]	%	-2.47

Exam item: Test system P. falciparum apicoplast DNA polymerase (Pf-apPOL) (Plasmodium falciparum); read-out % inhibition Apo pol 5'; what value for Cc1ccnc(NS(=O)(=O)c2ccc(-n3cccc3)cc2)n1 ?
Marked response: 26

Exam item: // lookup % inhibition Apo pol 5' | system=P. falciparum apicoplast DNA polymerase (Pf-apPOL) (Plasmodium falciparum) | key= Cc1cc(C)nc(Nc2nc(CC(=O)Nc3nc(-c4ccco4)cs3)cs2)n1
Marked response: 7

Exam item: Which measured % inhibition Apo pol 5' belongs to Oc1cccnc1/N=C/c1cc(I)cc(I)c1O , tested on P. falciparum apicoplast DNA polymerase (Pf-apPOL) (Plasmodium falciparum)?
Marked response: 26

Exam item: Which measured % inhibition Apo pol 5' belongs to O=C(O)c1cc([N+](=O)[O-])c(N2CCN(c3cccc(C(F)(F)F)c3)CC2)c([N+](=O)[O-])c1 , tested on P. falciparum apicoplast DNA polymerase (Pf-apPOL) (Plasmodium falciparum)?
Marked response: 9

Exam item: Enter reported % inhibition Apo pol 5' observed with P. falciparum apicoplast DNA polymerase (Pf-apPOL) (Plasmodium falciparum) for COc1cc(/C=C2\C(=O)N(c3ccc(C(=O)O)cc3)N=C2C(F)(F)F)ccc1OCC(C)C
Marked response: 4

Exam item: Which measured % inhibition Apo pol 5' belongs to COc1ccc(-c2occ(C(=O)O)c2C(=O)O)cc1 , tested on P. falciparum apicoplast DNA polymerase (Pf-apPOL) (Plasmodium falciparum)?
Marked response: 7

====

- experimental target: P. falciparum apicoplast DNA polymerase (Pf-apPOL) (Plasmodium falciparum)
- test details: Fluorescence-based high-throughput DNA polymerase assay (molecular beacon), primary screen and dose-response;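 on % inhibition Apol 40': compound concentration given in µM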
- Assay type: biochemical
- settings: DRC-2, 40', concentration 20
Quick rule: % inhibition Apol 40' of at least 30% means true (1), below that means false (0).

A selection of reference data follows.
molecule	group
COc1cc(/C=C2\S/C(=N/C(C)=O)NC2=O)cc(Br)c1OCC(=O)O	false (0)
Cc1ncc(CSc2nc(C(C)(C)C)cs2)c(CO)c1O	true (1)
Cc1nn(CC(=O)NCCSCc2ccco2)c(C)c1Br	false (0)
O=[N+]([O-])c1cc2c(cc1CN1CCN(c3cccc(Cl)c3)CC1)OCO2	false (0)
O=C(O)c1c(F)c(F)c(-c2c(F)c(F)c(C(=O)O)c(F)c2F)c(F)c1F	true (1)
CC1=NNC(=O)C1Oc1ccc(Cl)cc1Cl (stereo not drawn)	false (0)
CCOC(=O)C(NCc1ccco1)(NC(=O)c1ccco1)C(F)(F)F (stereo not drawn)	false (0)
O=C(Nc1nnc(-c2ccno2)o1)c1ccc2ncsc2c1	true (1)

Attention now shifts to the item below.
Exam item: Has O=C(c1c[nH]c2ncccc12)N1CCCCCC1 [Molecule 51, O=C(c1c[nH]c2c1cccn2)N1CCCCCC1] a recorded % inhibition Apol 40' greater than or equal to 30%?
Marked response: true (1)

====

- experimental target: P. falciparum apicoplast DNA polymerase (Pf-apPOL) (Plasmodium falciparum)
- test details: Fluorescence-based high-throughput DNA polymerase assay (molecular beacon), primary screen and dose-response
- Format: biochemical
- settings: DRC-2; read at 90'; concentration 5
measure name: % inhibition ApPOL 90' 5 (%)
Please give a number only; it is taken to be in %.

Please review the following examples before continuing.
compound	% inhibition ApPOL 90' 5 [%]
CC(=O)OCC1=C(C(=O)[O-])N2C(=O)[C@@H](NC(=O)Cc3cccs3)[C@H]2SC1.[Na+] [Molecule 73]	-1.85
Cn1nc(-c2nc(-c3ccccc3)no2)c2c1CCN(C(=O)Cc1cccs1)C2 [Molecule 58]	11
Cc1ccsc1Cn1c(C)ccc1C [Molecule 70, Cc1ccsc1Cn1c(C)ccc1C]	-0.174

We now examine a further compound.
Exam item: # get_value(readout='% inhibition ApPOL 90' 5', item= O=C(c1ccccc1)N1CCc2c(nc3cc(-c4ccccc4)[nH]n3c2=O)C1 [Molecule 30] )
Marked response: 18

====

- experimental target: UniProt Q8ILY1
- test details: Fluorescence-based high-throughput DNA polymerase assay (molecular beacon), primary screen and dose-response
- Assay type: biochemical
- settings: DRC-1; concentration 20; 10'
- From the text: The HT assay employs a molecular beacon, a stem-loop DNA template with a Cy3 dye and the Black Hole Quencher on the 3′ and 5′ ends of the DNA, respectively. Pf-apPOL concentration is based on a calculated absorptivity of ε280 = 56750 M^−1 cm^−1. […] To identify apPOL inhibitors we utilised our previously developed high-throughput DNA polymerase assay. […] The assay accurately recapitulates the kinetic behaviour of apPOL, as measured through more conventional low-throughput gel-based assays. […]
Kindly return Fulfilled if reported % inhibition Apo pol 10' is no lower than 70%; return Not fulfilled if it is lower.

compound	group
Oc1cccnc1/N=C/c1cc(I)cc(I)c1O [KU0073720]	Fulfilled
O=C(Nc1c2c(nn1-c1ccccc1)CSC2)c1ccco1 [KU0055213]	Fulfilled
Nc1ncnc(NC2CCCCC2)c1[N+](=O)[O-] [KU0193018]	Not fulfilled
CCc1ccccc1NC(=O)c1ccc(-c2ncccc2NC(C)=O)cc1 [KU0203112]	Not fulfilled
O=C(Cn1ccc2c(=O)[nH]ccc21)Nc1ccccc1Cl [Molecule 19, O=C(Cn1ccc2c1cc[nH]c2=O)Nc1ccccc1Cl]	Fulfilled

Exam item: Evaluate COc1ccc(-c2occ(C(=O)O)c2C(=O)O)cc1 [KU0021536] : % inhibition Apo pol 10' at minimum 70%?
Marked response: Not fulfilled

Exam item: Textbook exercise: given the entry Cc1ccnc(NS(=O)(=O)c2ccc(-n3cccc3)cc2)n1 [KU0034899] , state whether its % inhibition Apo pol 10' is greater than or equal to 70%.
Marked response: Fulfilled

Exam item: Item COc1ccc(NC(=O)Cn2nc3c(cc2=O)CCC3)cc1Cl [Molecule 4, COc1ccc(cc1Cl)NC(=O)Cn1nc2CCCc2cc1=O] with % inhibition Apo pol 10' of 70% or above?
Marked response: Fulfilled

Exam item: // inclusive: % inhibition Apo pol 10' at least 70%? input: CCCN1COc2ccc3c(=O)c(-c4ccccc4)coc3c2C1 [KU0199556]
Marked response: Not fulfilled

Exam item: Is the recorded value of % inhibition Apo pol 10' equal to or greater than 70% for this compound? O=C1c2ccccc2C(=O)c2c1oc1c3c(ccc21)OCN(C1CCCC1)C3 [KU0064306]
Marked response: Fulfilled
